assay: Half life in rat at 0.5 mg/kg, iv by discrete dosing method; format: ADME, organism-based; design: dose 0.5 mg/kg, route intravenous; settings: in vivo
QUANTITY KIND: half-life (h)

{"SMILES DATA": "CC1(C)CN(c2ccccc2NC(=O)Nc2ccc(OC(F)(F)F)cc2)c2c(O)cc(F)c(-c3ccc(Cl)cc3)c21", "VALUE MEASURED": 12}

====

assay: Clearance in rat at 0.5 mg/kg by cassette dosing method; type: ADME, organism-based; design: dose 0.5 mg/kg; settings: in vivo

{"COMPOUND": "CC(C)(C)CN1CCC2(CC1)CN(c1ccccc1NC(=O)Nc1ccc(OC(F)(F)F)cc1)c1c(O)cc(F)c(-c3ccc(F)cc3)c12", "UNITS TEXT": "mL/min/kg", "clearance": 4.2}
{"COMPOUND": "CC(C)(C)CN1CCC2(CC1)CN(c1ccccc1NC(=O)Nc1ccc(OC(F)(F)F)cc1)c1c(O)cc(F)c(-c3ccc(Cl)cc3)c12", "UNITS TEXT": "mL/min/kg", "clearance": 3.7}
{"COMPOUND": "CC(C)CN1CCCC1c1ccc(NC(=O)Nc2ccccc2N2CC(C)(C)c3c(-c4ccc(F)cc4)ccc(O)c32)cc1 (stereo not given)", "UNITS TEXT": "mL/min/kg", "clearance": 34}
{"COMPOUND": "CC(C)(C)CN1CCC2(CC1)CN(c1ccccc1NC(=O)Nc1nc3ccc(Cl)nc3s1)c1c(O)cc(F)c(-c3ccc(F)cc3)c12", "UNITS TEXT": "mL/min/kg", "clearance": 4}
{"COMPOUND": "CC(C)(C)CN1CCC2(CC1)CN(c1ccccc1NC(=O)Nc1nc3ccc(Cl)nc3s1)c1c(O)ccc(Cl)c12", "UNITS TEXT": "mL/min/kg", "clearance": 10.4}

====

remaining at 10 min, 0.5 µM overview
assay: Metabolic stability in mouse liver microsomes assessed as compound remaining at 0.5 uM after 10 mins; type: ADME; details: read-out: Stability
QUANTITY KIND: remaining at 10 min, 0.5 µM (%)

{"COMPOUND": "CC1(C)CN(c2ccccc2NC(=O)Nc2ccc(OC(F)(F)F)cc2)c2c(O)cc(F)c(-c3ccc(C(F)(F)F)cn3)c21", "VALUE MEASURED": 65}
{"COMPOUND": "CC(C)(C)CN1CCCC1c1ccc(NC(=O)Nc2ccccc2N2CC(C)(C)c3c(-c4ccc(F)cc4)ccc(O)c32)cc1 (centres undefined)", "VALUE MEASURED": 52}
{"COMPOUND": "CC1(C)CN(c2ccccc2NC(=O)Nc2ccc(OC(F)(F)F)cc2)c2c(O)cc(F)c(-c3ncc(F)cn3)c21", "VALUE MEASURED": 42}
{"COMPOUND": "CC1(CC(F)(F)F)CN(c2ccccc2NC(=O)Nc2ccc(OC(F)(F)F)cc2)c2c(O)ccc(Cl)c21 (centres undefined)", "VALUE MEASURED": 66}

====

test: Metabolic stability in rat liver microsomes assessed as compound remaining at 0.5 uM after 10 mins; assay type: ADME; conditions: read-out: Stability
QUANTITY KIND: remaining at 10 min, 0.5 µM (%)

{"MOLECULE": "CNC(=O)C1(C)CN(c2ccccc2NC(=O)Nc2nc3ccc(F)cc3s2)c2c(O)ccc(Cl)c21 (stereo not drawn)", "VALUE MEASURED": 5}
{"MOLECULE": "CC(C)(C)CN1CCC2(CC1)CN(c1ccccc1NC(=O)Nc1ccc(OC(F)(F)F)cc1)c1c(O)cc(F)c(-c3ccc(Cl)cc3)c12", "VALUE MEASURED": 72}
{"MOLECULE": "CC1(C)CN(c2ccccc2NC(=O)Nc2ccc(OC(F)(F)F)cc2)c2c(O)c(F)cc(-c3ccc(Cl)cc3)c21", "VALUE MEASURED": 100}
{"MOLECULE": "CC(C)(C)CN1CCC2(CC1)CN(c1ccccc1NC(=O)Nc1nc3ccc(Cl)nc3s1)c1c(O)cc(F)c(-c3ccc(F)cc3)c12", "VALUE MEASURED": 93}
{"MOLECULE": "CC1(C)CN(c2ccccc2NC(=O)Nc2ccc(OC(F)(F)F)cc2)c2c(O)ccc(Cl)c21", "VALUE MEASURED": 57}
{"MOLECULE": "CC1(C)CN(c2ccccc2NC(=O)Nc2ccc(OC(F)(F)F)cc2)c2c(O)ccc(-c3cccc(F)c3)c21", "VALUE MEASURED": 59}
{"MOLECULE": "CC1(C)CN(c2ccccc2NC(=O)Nc2csc(Cl)n2)c2c(O)ccc(-c3ccc(F)cc3)c21", "VALUE MEASURED": 0}
{"MOLECULE": "CC1(C)CN(c2ccccc2NC(=O)Nc2ccc(OC(F)(F)F)cc2)c2c(O)cc(F)c(-c3ccc(C(F)(F)F)cn3)c21", "VALUE MEASURED": 97}
